Quick list: pIC50 per entry.
Target: α4β1 integrin (Homo sapiens (Human), UniProt P05556+P13612)
Sequence (P13612 34-1032): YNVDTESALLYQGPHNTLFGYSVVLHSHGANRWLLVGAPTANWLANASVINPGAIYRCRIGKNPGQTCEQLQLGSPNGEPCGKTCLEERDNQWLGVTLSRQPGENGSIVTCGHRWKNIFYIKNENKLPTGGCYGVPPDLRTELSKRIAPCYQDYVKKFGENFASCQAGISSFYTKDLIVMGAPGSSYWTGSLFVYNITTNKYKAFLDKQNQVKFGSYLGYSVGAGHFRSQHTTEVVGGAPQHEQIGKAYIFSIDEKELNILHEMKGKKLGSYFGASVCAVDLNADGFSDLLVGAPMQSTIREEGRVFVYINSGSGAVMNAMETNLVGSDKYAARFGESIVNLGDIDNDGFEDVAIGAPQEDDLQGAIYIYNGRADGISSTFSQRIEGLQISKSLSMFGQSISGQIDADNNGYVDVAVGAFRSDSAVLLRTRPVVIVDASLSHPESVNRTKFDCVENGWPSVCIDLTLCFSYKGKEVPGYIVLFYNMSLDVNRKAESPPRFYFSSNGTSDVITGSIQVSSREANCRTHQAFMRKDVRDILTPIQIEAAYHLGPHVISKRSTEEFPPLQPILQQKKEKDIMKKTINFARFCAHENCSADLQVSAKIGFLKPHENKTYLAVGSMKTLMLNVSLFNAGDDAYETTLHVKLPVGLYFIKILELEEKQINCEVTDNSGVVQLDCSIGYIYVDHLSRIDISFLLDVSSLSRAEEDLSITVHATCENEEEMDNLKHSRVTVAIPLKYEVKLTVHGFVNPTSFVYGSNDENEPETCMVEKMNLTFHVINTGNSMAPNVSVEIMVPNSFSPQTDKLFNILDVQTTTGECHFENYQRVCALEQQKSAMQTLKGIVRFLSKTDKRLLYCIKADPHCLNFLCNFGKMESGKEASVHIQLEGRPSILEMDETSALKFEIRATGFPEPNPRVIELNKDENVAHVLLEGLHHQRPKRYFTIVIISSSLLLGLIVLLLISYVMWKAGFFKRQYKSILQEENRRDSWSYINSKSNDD
Sequence (P05556 21-798): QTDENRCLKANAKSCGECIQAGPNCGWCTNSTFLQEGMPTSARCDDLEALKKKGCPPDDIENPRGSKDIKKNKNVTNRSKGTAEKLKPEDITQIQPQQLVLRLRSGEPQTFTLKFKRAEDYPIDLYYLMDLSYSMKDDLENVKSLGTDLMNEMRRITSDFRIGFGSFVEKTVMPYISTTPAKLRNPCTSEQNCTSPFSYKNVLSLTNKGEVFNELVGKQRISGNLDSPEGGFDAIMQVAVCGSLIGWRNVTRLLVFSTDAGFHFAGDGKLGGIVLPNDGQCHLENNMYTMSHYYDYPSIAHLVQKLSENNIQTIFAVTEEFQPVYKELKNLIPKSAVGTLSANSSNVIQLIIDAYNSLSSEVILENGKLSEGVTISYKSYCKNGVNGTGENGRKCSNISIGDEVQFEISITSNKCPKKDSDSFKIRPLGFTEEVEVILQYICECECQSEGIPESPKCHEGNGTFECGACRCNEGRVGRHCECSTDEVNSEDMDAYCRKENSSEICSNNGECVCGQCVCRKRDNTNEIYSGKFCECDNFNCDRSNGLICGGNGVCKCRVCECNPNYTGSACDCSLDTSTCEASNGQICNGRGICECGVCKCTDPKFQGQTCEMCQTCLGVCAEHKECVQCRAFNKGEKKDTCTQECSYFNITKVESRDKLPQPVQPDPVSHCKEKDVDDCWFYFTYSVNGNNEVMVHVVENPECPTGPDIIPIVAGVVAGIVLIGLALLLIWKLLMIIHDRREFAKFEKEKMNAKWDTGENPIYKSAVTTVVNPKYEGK
Test: Integrin Adhesion Assay: Protocol 2 (VCAM-coated plate, Jurkat cells, CellTiter GLO readout)
Type: cell-based
Conditions: determined by at least one of the assays described (protocol not specified)
pIC50: −log10 of the molar value.

O=C(N[C@@H](Cc1cccc2c(-c3nccc4ccncc34)cccc12)C(=O)O)c1c(F)cc(CN2CCC2)cc1F; < 6.00
Cn1ccc(=O)n(-c2cccc3c(C[C@H](NC(=O)c4c(Cl)cccc4Cl)C(=O)O)cccc23)c1=O; < 6.00

Ask: Return pIC50 (reported value) for this compound: Cn1ccc(=O)n(-c2cccc3c(C[C@H](NC(=O)C(C)(C)CSc4cccc(C(F)(F)F)c4)C(=O)O)cccc23)c1=O
Reply: < 6.00

Ask: Assign pIC50 to the following record: O=C(N[C@@H](Cc1cccc2c(-c3nccc4ccncc34)cccc12)C(=O)O)c1c(F)cc(N2CCOC[C@@H]2CC(F)F)cc1F
Reply: < 6.00

Ask: Given O=C(N[C@@H](Cc1cccc2c(-c3cccc4ccncc34)cccc12)C(=O)O)c1c(F)cc(N2CCOC[C@@H]2C(F)(F)F)cc1F , respond with its pIC50.
Reply: < 6.00

----------
IC50: recorded values
Molecular target: α4β7 integrin (Homo sapiens (Human), UniProt P13612+P26010)
Sequence (P13612 34-1032): as the sequence (P13612 34-1032) above
Sequence (P26010 20-798): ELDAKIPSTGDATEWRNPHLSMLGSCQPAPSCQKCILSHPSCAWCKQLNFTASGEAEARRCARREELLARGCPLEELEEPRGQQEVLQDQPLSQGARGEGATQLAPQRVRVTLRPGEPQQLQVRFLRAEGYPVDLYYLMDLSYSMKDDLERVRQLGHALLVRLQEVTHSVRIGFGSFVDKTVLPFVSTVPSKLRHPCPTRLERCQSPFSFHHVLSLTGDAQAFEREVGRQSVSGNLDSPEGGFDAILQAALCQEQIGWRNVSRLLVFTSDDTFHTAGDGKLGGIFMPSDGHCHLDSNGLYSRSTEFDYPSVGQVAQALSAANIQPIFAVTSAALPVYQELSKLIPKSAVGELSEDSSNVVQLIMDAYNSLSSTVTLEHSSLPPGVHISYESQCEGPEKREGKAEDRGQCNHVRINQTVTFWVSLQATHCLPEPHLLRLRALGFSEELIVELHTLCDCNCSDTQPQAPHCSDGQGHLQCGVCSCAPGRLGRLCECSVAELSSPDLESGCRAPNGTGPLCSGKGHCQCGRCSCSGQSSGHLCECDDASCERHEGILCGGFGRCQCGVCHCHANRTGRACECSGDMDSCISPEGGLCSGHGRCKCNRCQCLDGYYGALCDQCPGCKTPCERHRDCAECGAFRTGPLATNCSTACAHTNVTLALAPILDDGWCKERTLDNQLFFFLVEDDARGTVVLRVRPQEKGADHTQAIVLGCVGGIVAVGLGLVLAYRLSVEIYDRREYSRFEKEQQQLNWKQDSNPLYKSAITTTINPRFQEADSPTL
Assay: Integrin Adhesion Assay: Protocol 4 (MAdCAM-coated plate, RPMI-8866 cells with stable LOF mutation of the ITGB1 gene)
Assay type: cell-based
Conditions: Protocol 4; RPMI-8866 cells with LOF mutation of ITGB1, MAdCAM; read-out: Mean IC50 α4β7 KO

Ask: Find the measured IC50 of O=C(O)[C@H](Cc1cccc2c(-c3ncc(CN4CCC(F)CC4)c4ccccc34)cccc12)NC(=O)C1(C(F)(F)F)CCN(CC(F)(F)F)CC1 and report it.
Reply: 0.01 to 0.1 µM

----------
Target: α4β7 integrin (Homo sapiens (Human), UniProt P13612+P26010)
Test: Integrin Adhesion Assay: Protocol 1 (MAdCAM-coated plate, RPMI-8866 cells, CellTiter GLO readout)
Format: cell-based
pIC50: −log10 of the molar value.
measurement_type: pIC50

Ask: In one line, give reported pIC50 of the entry Cn1c(=O)c(-c2cccc3c(C[C@H](NC(=O)c4c(F)cc(N5CC(F)C5)cc4F)C(=O)O)cccc23)c(C(F)(F)F)c2ccccc21 .
Reply: 6.00 to 7.00

Ask: # return recorded pIC50 for input Cn1c(=O)c(-c2cccc3c(C[C@H](NC(=O)c4c(F)cc5cnn(CC(F)(F)F)c5c4F)C(=O)O)cccc23)c(C(F)(F)F)c2ccccc21
Reply: 7.00 to 8.00

Ask: Respond only with pIC50 recorded for CC[C@@](Cc1cccs1)(C(=O)N[C@@H](Cc1cccc2c(-c3c(C(F)(F)F)ccn(C)c3=O)nccc12)C(=O)O)c1ccccc1
Reply: 6.00 to 7.00

Ask: Output pIC50 of Cn1c(=O)c(-c2cccc3c(C[C@H](NC(=O)c4c(F)cc(C5CCNCC5)cc4F)C(=O)O)cccc23)c(C(F)(F)F)c2ccccc21
Reply: 6.00 to 7.00

Ask: Give the measured pIC50 for Cn1c(=O)c(-c2cccc3c(C[C@H](NC(=O)c4c(F)ccc(C5CCC(F)(F)CC5)c4F)C(=O)O)cccc23)c(C(F)(F)F)c2ccccc21
Reply: 6.00 to 7.00

Ask: Identify measured pIC50 associated with Cn1c(=O)c(-c2cccc3c(C[C@H](NC(=O)c4c(F)ccc(-c5ccccn5)c4F)C(=O)O)cccc23)c(C(F)(F)F)c2ccccc21
Reply: 7.00 to 8.00

The measurements presented in this section are drawn from patent US20250313535A1.
